- Experimental system: Tyrosine-protein kinase BTK (Homo sapiens) (UniProt Q06187)
- Sequence (Q06187 whole entry): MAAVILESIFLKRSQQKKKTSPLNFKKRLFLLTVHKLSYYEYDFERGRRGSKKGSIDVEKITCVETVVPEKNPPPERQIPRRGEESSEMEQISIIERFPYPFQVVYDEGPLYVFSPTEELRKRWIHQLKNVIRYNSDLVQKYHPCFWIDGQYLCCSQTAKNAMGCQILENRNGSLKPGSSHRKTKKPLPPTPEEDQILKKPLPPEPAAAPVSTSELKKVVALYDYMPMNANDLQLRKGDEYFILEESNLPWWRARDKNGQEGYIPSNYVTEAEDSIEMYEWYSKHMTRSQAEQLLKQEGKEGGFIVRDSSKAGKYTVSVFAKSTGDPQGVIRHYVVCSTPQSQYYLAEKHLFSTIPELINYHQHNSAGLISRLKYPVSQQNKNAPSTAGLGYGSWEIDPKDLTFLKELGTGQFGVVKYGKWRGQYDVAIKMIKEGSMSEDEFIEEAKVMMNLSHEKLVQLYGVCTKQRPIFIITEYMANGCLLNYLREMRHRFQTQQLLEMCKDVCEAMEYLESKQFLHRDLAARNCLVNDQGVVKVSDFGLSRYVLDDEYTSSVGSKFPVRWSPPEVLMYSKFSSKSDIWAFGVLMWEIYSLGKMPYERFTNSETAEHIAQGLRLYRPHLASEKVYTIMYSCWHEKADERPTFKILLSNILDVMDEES
- Measurement protocol: Inhibition of human BTK at 1 uM relative to control; values are per cent of control
Readout kind: residual activity (%)
Give the quantity in %, number only.

The cases that follow already have their residual activity on record.
{"Entry smiles": "CN(C)c1nc2ccc1CCCn1cc(c3ccccc31)C1=C(C(=O)NC1=O)c1cn(c3ccccc13)CC2", "Readout kind": "residual activity", "Endpoint unit": "%", "Value observed": 105}
{"Entry smiles": "CN(C)c1cc2cc(n1)CCCn1cc(c3ccccc31)C1=C(C(=O)NC1=O)c1cn(c3ccccc13)CCC2", "Readout kind": "residual activity", "Endpoint unit": "%", "Value observed": 106}
{"Entry smiles": "O=C1NC(=O)C2=C1c1cn(c3ccccc13)CCCc1ccc(c(N3CCCC3)n1)CCCn1cc2c2ccccc21", "Readout kind": "residual activity", "Endpoint unit": "%", "Value observed": 104}

**Q:** // Input: O=C1NC(=O)C2=C1c1cn(c3ccccc13)CCCc1cc(nc(N3CCCC3)c1)CCCn1cc2c2ccccc21 . Output its residual activity only.
**A:** 106

====

- Experimental system: Casein kinase II (Homo sapiens) (UniProt P67870+P68400+P19784)
- Measurement protocol: Inhibition of human CK2 at 1 uM relative to control; values are per cent of control
Readout kind: residual activity (%)
Write the number in % without appending the unit.

{"Entry smiles": "CN(C)c1nc2ccc1CCCn1cc(c3ccccc31)C1=C(C(=O)NC1=O)c1cn(c3ccccc13)CC2", "Value observed": 107}
{"Entry smiles": "O=C1NC(=O)C2=C1c1cn(c3ccccc13)CCCc1ccc(c(N3CCCC3)n1)CCCn1cc2c2ccccc21", "Value observed": 113}
{"Entry smiles": "CN(C)c1cc2cc(n1)CCCn1cc(c3ccccc31)C1=C(C(=O)NC1=O)c1cn(c3ccccc13)CCC2", "Value observed": 111}

Now let's try a different one.
**Q:** With Casein kinase II (Homo sapiens) (UniProt P67870+P68400+P19784) as the test system, provide measured residual activity for this molecule: O=C1NC(=O)C2=C1c1cn(c3ccccc13)CCCc1cc(nc(N3CCCC3)c1)CCCn1cc2c2ccccc21
**A:** 108
